# SYSTEM: Glucose-dependent insulinotropic receptor (Homo sapiens) (UniProt Q8TDV5)
# Sequence (whole entry): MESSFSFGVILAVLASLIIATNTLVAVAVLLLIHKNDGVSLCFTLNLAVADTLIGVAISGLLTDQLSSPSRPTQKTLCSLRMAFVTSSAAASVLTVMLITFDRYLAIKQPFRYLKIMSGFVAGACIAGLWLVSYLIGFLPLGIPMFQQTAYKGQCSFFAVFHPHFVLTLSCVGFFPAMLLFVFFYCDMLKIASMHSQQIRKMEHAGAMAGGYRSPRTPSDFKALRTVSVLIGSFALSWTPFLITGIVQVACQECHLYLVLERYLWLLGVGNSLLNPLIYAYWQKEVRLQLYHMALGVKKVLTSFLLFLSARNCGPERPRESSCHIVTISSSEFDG
# ASSAY_SUMMARY: Intrinsic activity at human GPR119 expressed in HEK293 cells assessed as intracellular cAMP accumulation after 30 mins by HTRF assay relative to oleoylethanolamide
# Format: functional, cell-based
VALUE_TYPE: Intrinsic activity (%)

Given item `CC1(C)C[C@]2(CC[C@H](Oc3ncnc4c3CCN4c3ccc(S(C)(=O)=O)cc3F)CC2)CO1` , the value recorded as its Intrinsic activity is 90

(A) Cc1c(Nc2ccc(S(C)(=O)=O)cc2)ncnc1O[C@H]1CC[C@]2(CC1)COC(C)(C)C2
(B) Cc1c(Oc2ccc(S(C)(=O)=O)cc2F)ncnc1O[C@H]1CC[C@]2(CC1)COC(C)(C)C2
# query: argmin of Intrinsic activity over A and B Give the chosen item's label as your response.
B

(A) CN(c1cc(N2CCc3cc(S(C)(=O)=O)ccc32)ncn1)[C@H]1CC[C@]2(CC1)COC(C)(C)C2
(B) Cc1c(O[C@H]2CC[C@]3(CC2)COC(C)(C)C3)ncnc1N1CCc2cc(S(C)(=O)=O)ccc21
// compare measured Intrinsic activity, left A , right B , return larger Could you answer with the label of the item you picked?
A
(A: 108%, B: 38%)

(a) Cc1c(O[C@H]2CC[C@]3(CC2)COC(C)(C)C3)ncnc1N(C)c1ccc(S(C)(=O)=O)cc1F
(b) CC1(C)C[C@]2(CC[C@H](c3nc(COc4ccc(-n5cnnn5)cc4)cs3)CC2)CO1
Compare the recorded Intrinsic activity of a and b ; state which is larger. Your choice should be expressed through its label.
b

====

# ASSAY_SUMMARY: Metabolic stability in human liver microsomes assessed as parent compound remaining at 5 uM after 1 hr
# Assay type: ADME, Microsome
# RUN_CONDITIONS: read-out: Stability
VALUE_TYPE: remaining at 1 h, 5 µM (%)

Per the records, this compound ( `Cc1c(Nc2ccc(S(C)(=O)=O)cc2F)ncnc1N(C)[C@H]1CC[C@]2(CC1)COC(C)(C)C2` ) has remaining at 1 h, 5 µM equal to 91

Field remaining at 1 h, 5 µM (entry `CN(c1cc(N2CCc3cc(S(C)(=O)=O)ccc32)ncn1)[C@H]1CC[C@]2(CC1)COC(C)(C)C2` ) reads 89

So for `Cc1c(Nc2ccc(C(=O)N(C)C)cc2F)ncnc1O[C@H]1CC[C@]2(CC1)COC(C)(C)C2` , the logged remaining at 1 h, 5 µM turned out to be 77

Record `CN(c1ncnc2c1CCN2c1ccc(S(C)(=O)=O)cc1F)[C@H]1CC[C@]2(CC1)COC(C)(C)C2` . Reported remaining at 1 h, 5 µM: 99
